target: RSV postfusion F (postF), F deltaFP (Respiratory Syncytial Virus); experiment: BLI, IgG on anti-human IgG sensor, 100 nM antigen
Recorded Metric: Kd (nM)

[
  {
    "Binder": "ADI-41174 (antibody, V domains shown) VH: EVQLVESGAEVEKPGASVKVSCKASGYTFINYDIIWVRQAPGQGLEWMGWISGYKGNTNYAQKLQGRITMSTDTSTRTAYMELRSLTSDDTAVYYCARVGGTARSTTPYYYGMDVWGQGTTVTVSS VL: SYVLTQPPSVSVSPGQTARITCSGDAVPKQFSYWYQQKPGQAPVLVIYKDIERPSGIPERFSGSSSGTTVTLTISGVQAEDEADYYCQSAHTSGTYHVFGTGTKLTVL",
    "Recorded Metric": "Kd",
    "Units Text": "nM",
    "Reported Measurement": 0.751
  },
  {
    "Binder": "ADI-41149 (antibody, V domains shown) VH: QVQLVQSGGGVVQPGRSLRLSCAASGFTFSDYGMHWVRQAPGKGLEWVAVIWFDGSNKNYADSVKGRFTISRDNSMNTLYLQMNNLRAEDTAVYYCARAPYSFWSGYYLDYWGQGSLVTVSS VL: DIVMTQSPATLSVSPGERATLSCRASQSISSNLAWYQQKSGQAPRLLIYGASTRATGIPARFSGSGSGTEFTLTISSLQSEDFAVYSCQQYSKWPQTFGQGTKVEIK",
    "Recorded Metric": "Kd",
    "Units Text": "nM",
    "Reported Measurement": 0.857
  },
  {
    "Binder": "ADI-41223 (antibody, V domains shown) VH: QVQLVESGGGVVQPGRSLRISCAASGFTFSNYGMHWVRQAPGKGLEWVAVLSYDGSNEYYADSVKGRFTISRDNSKNTLYLQMNSLRAEDTAVYYCAKNLNDYNISWYKCFDLWGRGTLVTVSS VL: QPVLTQPASVSGSPGQSITISCTGTSSDVGGYNYVSWYQHHPGKAPKLIIYDVNNRPSGVSNRFSGSKSGNTASLTISGLQAEDEADYICSSYTTITTFVVFGGGTKLTVL",
    "Recorded Metric": "Kd",
    "Units Text": "nM",
    "Reported Measurement": 1.81
  },
  {
    "Binder": "ADI-41169 (antibody, V domains shown) VH: EVQLVESGAEVKKPGESLKISCEAFGYSFTSYWIGWVRQVPGRGLEWIGVIYPGDSDIRYTPSFRGQVTISADRSISTAYLQWNNLKASDTAMYYCARPGRDINYYHSRDYGALDIWGQGTTVTVSS VL: DIQLTQSPDSLAVSLGERVTINCKSSQSFLYSSNNKNYLAWYQQKPGQPPKLLIYWASVRESGVPDRFSGSGSGTDFTLTISSLQAEDVAVYYCQEYYSPPMFTFGQGTKVEIK",
    "Recorded Metric": "Kd",
    "Units Text": "nM",
    "Reported Measurement": 1.19
  },
  {
    "Binder": "ADI-41163 (antibody, V domains shown) VH: QVQLVQSGGGVVQPGRSLRLSCAASGFPFHSYAMHWVRQAPGKGLEWVAVIWYEGSEKHYADSVQGRFTISRDNSKNMLYLQMNNLRVADTAVYYCARRGAWGFDIWGQGTTVTVSS VL: DIVMTQTPLSLPVTPGEPASISCRSSQSVLHSTGYNSLDWYLQKPGQSPQLLIFLGSNRASGVPDRFSGSGSGTDFTLKISRVEAEDVGVYYCMQGLQTPYTFGQGTKVEIK",
    "Recorded Metric": "Kd",
    "Units Text": "nM",
    "Reported Measurement": 0.604
  }
]
